# Target system: UniProt O30463
pIC50: −log10 of the molar value.
Rule: Y for pIC50 not less than 9, N for anything less.

structure=COc1cc(Cc2cnc(N)nc2N)cc(C#CCCC(=O)O)c1Br target_system="UniProt O30463" classification=Y
structure=Nc1nc(N)c2nc(CN3c4ccccc4C=Cc4c(C#CCCCC(=O)O)cccc43)cnc2n1 target_system="UniProt O30463" classification=N
structure=COc1ccc(OCCCC(=O)O)c(Cc2cnc3nc(N)nc(N)c3c2C)c1 target_system="UniProt O30463" classification=Y
structure=COc1ccc(OCCCC(=O)O)cc1Cc1cnc2nc(N)nc(N)c2c1C target_system="UniProt O30463" classification=Y
structure=COc1ccc(OCCCCCC(=O)O)cc1Cc1cnc2nc(N)nc(N)c2c1C target_system="UniProt O30463" classification=Y
structure=Nc1nc(N)c2nc(CN3c4ccccc4C=Cc4c(C#CCCC(=O)O)cccc43)cnc2n1 target_system="UniProt O30463" classification=N
structure=CCOC(=O)CCCOc1ccc(OC)cc1Cc1cnc2nc(N)nc(N)c2c1C target_system="UniProt O30463" classification=N
structure=CCOC(=O)CCCCOc1ccc(OC)c(Cc2cnc3nc(N)nc(N)c3c2C)c1 target_system="UniProt O30463" classification=N
structure=CCOC(=O)CCCCCOc1ccc(OC)c(Cc2cnc3nc(N)nc(N)c3c2C)c1 target_system="UniProt O30463" classification=N
structure=COc1ccc(OCCCCC(=O)O)cc1Cc1cnc2nc(N)nc(N)c2c1C target_system="UniProt O30463" classification=Y
structure=COc1ccc(C#CCCC(=O)O)cc1Cc1cnc2nc(N)nc(N)c2c1C target_system="UniProt O30463" classification=Y
structure=COc1ccc(OCc2ccccc2)c(Cc2cnc3nc(N)nc(N)c3c2C)c1 target_system="UniProt O30463" classification=N

====

Parameter IC50, tested on Dihydrofolate reductase (Rattus norvegicus), listed per item.
Sequence (Q920D2 whole entry): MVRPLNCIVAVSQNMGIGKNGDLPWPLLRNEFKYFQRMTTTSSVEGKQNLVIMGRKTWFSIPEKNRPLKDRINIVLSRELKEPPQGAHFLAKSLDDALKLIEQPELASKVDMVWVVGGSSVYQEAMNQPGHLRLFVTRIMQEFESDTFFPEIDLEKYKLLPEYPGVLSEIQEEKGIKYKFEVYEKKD
Value kind: IC50

structure=CCOC(=O)CCCCCOc1ccc(OC)c(Cc2cnc3nc(N)nc(N)c3c2C)c1 value_kind=IC50 result="21 nM"
structure=CCOC(=O)CCCCOc1ccc(OC)c(Cc2cnc3nc(N)nc(N)c3c2C)c1 value_kind=IC50 result="14 nM"
structure=CCOC(=O)CCCOc1ccc(OC)cc1Cc1cnc2nc(N)nc(N)c2c1C value_kind=IC50 result="93 nM"
structure=COc1ccc(OCCCC(=O)O)cc1Cc1cnc2nc(N)nc(N)c2c1C value_kind=IC50 result="2.2 nM"
structure=CCOC(=O)CCCOc1ccc(OC)c(Cc2cnc3nc(N)nc(N)c3c2C)c1 value_kind=IC50 result="4.2 nM"
structure=Nc1nc(N)c2nc(CN3c4ccccc4C=Cc4c(C#CCCC(=O)O)cccc43)cnc2n1 value_kind=IC50 result="560 nM"
structure=COc1ccc(C#CCCC(=O)O)cc1Cc1cnc2nc(N)nc(N)c2c1C value_kind=IC50 result="0.32 nM"
structure=COc1ccc(C#CCCCCC(=O)O)cc1Cc1cnc2nc(N)nc(N)c2c1C value_kind=IC50 result="4 nM"
structure=COc1ccc(C#CCCCC(=O)O)c(Cc2cnc3nc(N)nc(N)c3c2C)c1 value_kind=IC50 result="24 nM"
structure=Nc1nc(N)c2nc(CN3c4ccccc4C=Cc4c(C#CCCCC(=O)O)cccc43)cnc2n1 value_kind=IC50 result="1300 nM"
structure=COc1ccc(I)cc1Cc1cnc2nc(N)nc(N)c2c1C value_kind=IC50 result="5 nM"
structure=COc1ccc(OCCCCC(=O)O)cc1Cc1cnc2nc(N)nc(N)c2c1C value_kind=IC50 result="2.2 nM"
structure=COc1cc(Cc2cnc(N)nc2N)cc(C#CCCC(=O)O)c1Br value_kind=IC50 result="630 nM"
structure=COc1ccc(OCCCC(=O)O)c(Cc2cnc3nc(N)nc(N)c3c2C)c1 value_kind=IC50 result="9.1 nM"
structure=COc1ccc(OCCCCCC(=O)O)cc1Cc1cnc2nc(N)nc(N)c2c1C value_kind=IC50 result="2 nM"
structure=COc1ccc(I)c(Cc2cnc3nc(N)nc(N)c3c2C)c1 value_kind=IC50 result="4 nM"
structure=COc1ccc(C#CCCCC(=O)O)cc1Cc1cnc2nc(N)nc(N)c2c1C value_kind=IC50 result="5.7 nM"
structure=COc1ccc(OCc2ccccc2)c(Cc2cnc3nc(N)nc(N)c3c2C)c1 value_kind=IC50 result="170 nM"
structure=COc1ccc(C#CCCC(=O)O)c(Cc2cnc3nc(N)nc(N)c3c2C)c1 value_kind=IC50 result="55 nM"

====

Protein target, amino acids: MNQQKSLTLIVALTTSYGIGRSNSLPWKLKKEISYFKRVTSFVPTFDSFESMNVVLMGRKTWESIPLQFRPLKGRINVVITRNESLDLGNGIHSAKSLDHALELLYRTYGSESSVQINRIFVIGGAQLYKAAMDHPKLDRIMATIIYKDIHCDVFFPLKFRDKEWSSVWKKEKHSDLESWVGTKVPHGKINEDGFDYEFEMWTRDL
pIC50: −log10 of the molar value.
Value kind: pIC50

structure=COc1ccc(C#CCCCCC(=O)O)cc1Cc1cnc2nc(N)nc(N)c2c1C value_kind=pIC50 numeric_result=8.74
structure=CCOC(=O)CCCOc1ccc(OC)cc1Cc1cnc2nc(N)nc(N)c2c1C value_kind=pIC50 numeric_result=7.08
structure=COc1ccc(I)c(Cc2cnc3nc(N)nc(N)c3c2C)c1 value_kind=pIC50 numeric_result=8.42
structure=COc1ccc(C#CCCC(=O)O)c(Cc2cnc3nc(N)nc(N)c3c2C)c1 value_kind=pIC50 numeric_result=9.19

====

# Target system: Dihydrofolate reductase (Mycobacterium avium)
# Sequence (O30463 whole entry): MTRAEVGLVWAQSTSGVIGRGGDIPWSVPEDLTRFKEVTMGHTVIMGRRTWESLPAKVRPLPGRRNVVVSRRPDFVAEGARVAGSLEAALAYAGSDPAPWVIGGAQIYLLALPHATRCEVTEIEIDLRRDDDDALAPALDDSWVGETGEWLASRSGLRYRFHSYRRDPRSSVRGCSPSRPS
pIC50: −log10 of the molar value.
Value kind: pIC50

structure=COc1ccc(C#CCCCCC(=O)O)cc1Cc1cnc2nc(N)nc(N)c2c1C numeric_result=9.16
structure=COc1ccc(C#CCCC(=O)O)c(Cc2cnc3nc(N)nc(N)c3c2C)c1 numeric_result=9.24
structure=COc1ccc(C#CCCCC(=O)O)c(Cc2cnc3nc(N)nc(N)c3c2C)c1 numeric_result=8.89
structure=CCOC(=O)CCCOc1ccc(OC)c(Cc2cnc3nc(N)nc(N)c3c2C)c1 numeric_result=8.74
structure=COc1ccc(I)c(Cc2cnc3nc(N)nc(N)c3c2C)c1 numeric_result=8.74
structure=COc1ccc(I)cc1Cc1cnc2nc(N)nc(N)c2c1C numeric_result=9.04
structure=COc1ccc(C#CCCCC(=O)O)cc1Cc1cnc2nc(N)nc(N)c2c1C numeric_result=9.00

Every entry's value here was drawn from ChEMBL document CHEMBL1145152.
